assay: in vitro; settings: male, CD-1, mouse, s9, Half-life (min), calculated half-life in parentheses
VALUE KIND: half-life at 1 μM (h)
Dear colleague, please return just the value in h, with no unit written.

Ask: Can you share its half-life at 1 μM? I mean this molecule: CCCCCCCCCCCCCCCC(=O)NCCOC(=O)CCC(=O)OCC(COC(=O)CCCCCCC)OC(=O)CCCCCCC (stereo not shown) [Compound I-3, PEA-Succinate-Glycerol-Di-Caprylic]
Result: 1.45

---

test: Plasma stability (37° C., pH 7.4), mouse; type: in vitro ADME, CD-1 mouse; details: male, CD-1, mouse, plasma, pH 7.4, mouse plasma; calculated value beyond duration of experiment; read-out: Half-life (min), calculated half-life in parentheses
VALUE KIND: half-life at 1 μM (min)
Dear colleague, please return just the value in min, with no unit written.

Ask: Can you share its half-life at 1 μM? I mean this compound: CC/C=C\C/C=C\C/C=C\C/C=C\C/C=C\CCCC(=O)OCCNC(=O)CCCCCCCCCCCCCCC
Result: 213

---

assay: Simulated intestinal fluid (SIF) stability in the presence of various enzymes; assay type: in vitro ADME; settings: simulated intestinal fluid with chymotrypsin, pH 6.8, SIF + Chymotrypsin, 1 μM; read-out: Half-life
molecules and their reported half-life at 1 μM
Dear colleague, please return just the value in min, with no unit written.

Worked set:
MOLECULE	half-life at 1 μM / min
CCCCCCCCCCCCCCCC(=O)NCCOC(=O)CCC(=O)OC[C@H]1O[C@@](CO)(O[C@H]2O[C@H](CO)[C@@H](O)[C@H](O)[C@H]2O)[C@@H](O)[C@@H]1O	14
CCCCC/C=C\C/C=C\CCCCCCCC(=O)OCC(COC(=O)CCC(=O)OCCNC(=O)CCCCCCCCCCCCCCC)OC(=O)CCCCCCC/C=C\C/C=C\CCCCC (centres unmarked)	49
CCCCC/C=C\C/C=C\CCCCCCCC(=O)OCCNC(=O)CCCCCCCCCCCCCCC	101
CC/C=C\C/C=C\C/C=C\C/C=C\C/C=C\CCCC(=O)OCCNC(=O)CCCCCCCCCCCCCCC	47
CCCCCCCCCCCCCCCC(=O)NCCOC(=O)CCC(=O)OCC(O)CO (centres unmarked)	14

Ask: Can you share its half-life at 1 μM? I mean this molecule: CCCCCCCCCCCCCCCC(=O)NCCOC(=O)CCC(=O)OCC(COC(=O)CCCCCCC)OC(=O)CCCCCCC (centres unmarked) [Compound I-3, PEA-Succinate-Glycerol-Di-Caprylic]
Result: 107

Ask: Can you share its half-life at 1 μM? I mean this molecule: CCCCCCCCCCCCCCCC(=O)NCCOC(=O)CCC(=O)OCC(COC(=O)CCC)OC(=O)CCC (centres unmarked)
Result: 50

---

assay: Intestinal S9 fraction stability, rat; conditions: male, Sprague-Dawley, rat, s9, Half-life, control compound, Example 4 control run
VALUE KIND: half-life (h)
Dear colleague, please return just the value in h, with no unit written.

Ask: Can you share its half-life? I mean this compound: C[C@]12CC[C@H]3[C@@H](CCC4=CC(=O)CC[C@@]43C)[C@@H]1CC[C@@H]2O [Testosterone, testosterone, reference compound]
Result: 1.93

---

assay: in vitro; settings: male, CD-1, mouse, 0 min, 1 μM
VALUE KIND: Concentration (μM) of analyte PEA, 0 min (µM)
Dear colleague, please return just the value in µM, with no unit written.

Worked set:
COMPOUND	VALUE KIND	RESULT
CCCCC/C=C\C/C=C\CCCCCCCC(=O)OCCNC(=O)CCCCCCCCCCCCCCC	Concentration (μM) of analyte PEA, 0 min	0.030
CCCCCCCCCCCCCCCC(=O)NCCOC(=O)CCC(=O)OCC(COC(=O)CCCCCCC)OC(=O)CCCCCCC (stereo not shown) [Compound I-3, PEA-Succinate-Glycerol-Di-Caprylic]	Concentration (μM) of analyte PEA, 0 min	0.013
CC/C=C\C/C=C\C/C=C\C/C=C\C/C=C\CCCC(=O)OCCNC(=O)CCCCCCCCCCCCCCC	Concentration (μM) of analyte PEA, 0 min	0.046
CCCCCCCCCCCCCCCC(=O)NCCOC(=O)CCC	Concentration (μM) of analyte PEA, 0 min	0.51
CCCCCCCCCCCCCCCC(=O)NCCOC(=O)CCC(=O)OCC(O)CO (stereo not shown)	Concentration (μM) of analyte PEA, 0 min	0.52
CCCCCCCCCCCCCCCC(=O)NCCOC(=O)CCC(=O)OCC(COC(=O)CCC)OC(=O)CCC (stereo not shown)	Concentration (μM) of analyte PEA, 0 min	0.18

Ask: Can you share its Concentration (μM) of analyte PEA, 0 min? I mean this compound: CCCCCCCCCCCCCCCC(=O)NCCOC(=O)CCC(=O)OC[C@H]1O[C@@](CO)(O[C@H]2O[C@H](CO)[C@@H](O)[C@H](O)[C@H]2O)[C@@H](O)[C@@H]1O
Result: 0.22
